Sourced from patent US8143288B2

# EC50 values compiled below
- Test system: HCV 1b-377-neo replicon cells
- PROTOCOL: HCV replicon FRET assay
- Assay type: cell-based
- EXPERIMENTAL_SETUP: Hepatitis C virus; HCV replicon; read-out: Activity (EC50)

-- ask // EC50 lookup, key: C[C@@](O)(C(=O)N1CCC[C@H]1C(=O)Nc1ccc(/C=C/c2ccc(NC(=O)[C@@H]3CCCN3C(=O)[C@@](C)(O)c3ccccc3)cc2)cc1)c1ccccc1
-- reply 0.0001 to 0.09 µM

***
-- ask // EC50 lookup, key: CCCOc1cccnc1C(=O)N1CCC[C@H]1C(=O)Nc1ccc(/C=C/c2ccc(NC(=O)[C@@H]3CCCN3C(=O)c3ncccc3OCCC)cc2)cc1
-- reply 1 to 10 µM

-- ask // EC50 lookup, key: CSCC(=O)N1CCC[C@H]1C(=O)Nc1ccc(/C=C/c2ccc(NC(=O)[C@@H]3CCCN3C(=O)c3ccccn3)cc2)cc1
-- reply 0.0001 to 0.09 µM
